Biological target: IRAK4 (Homo sapiens, UniProt Q9NWZ3)
Sequence (Q9NWZ3 whole entry, species assumed): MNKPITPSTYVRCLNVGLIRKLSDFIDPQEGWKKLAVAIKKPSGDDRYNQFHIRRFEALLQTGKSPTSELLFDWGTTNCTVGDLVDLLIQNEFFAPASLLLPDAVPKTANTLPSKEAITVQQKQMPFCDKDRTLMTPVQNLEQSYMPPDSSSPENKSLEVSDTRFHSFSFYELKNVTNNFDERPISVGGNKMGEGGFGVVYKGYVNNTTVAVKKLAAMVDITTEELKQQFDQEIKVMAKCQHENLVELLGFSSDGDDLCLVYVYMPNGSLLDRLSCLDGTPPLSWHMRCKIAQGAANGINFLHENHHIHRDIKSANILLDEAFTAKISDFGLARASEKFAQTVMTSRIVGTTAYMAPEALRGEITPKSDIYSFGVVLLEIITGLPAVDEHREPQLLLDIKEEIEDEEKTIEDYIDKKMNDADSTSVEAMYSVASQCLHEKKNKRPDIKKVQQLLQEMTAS
Assay: Hibit fluorescence detection of proteolysis (IRAK4-HiBiT in HEK293T cells)
Format: cell-based
Design: host or cells: HEK293T (ATCC)
Settings: IRAK4-HiBiT, HEK293T cells, 24 h
Measure Name: DC50

Consider the compound Cn1c(=O)n(C2CCC(=O)NC2=O)c2cccc(N3CCC(N4CCN(C[C@H]5CC[C@H](n6cc(-n7cc(-c8cnn9ccc(N%10CCC(C)(O)CC%10)nc89)nn7)c(C(F)F)n6)CC5)CC4)CC3)c21 (stereo partly shown) [Example 124] and give its measured DC50.
< 0.5 nM

Let us now turn to Cn1c(=O)n(C2CCC(=O)NC2=O)c2cccc(C#CC3CN(C[C@H]4CC[C@H](n5cc(-n6cc(-c7ccc8cc(C(N)=O)cnn78)nn6)c(C(F)F)n5)CC4)C3)c21 (stereo partly shown) [Example 87]
0.5 to 1 nM

Let us now turn to Cn1c(=O)n(C2CCC(=O)NC2=O)c2cccc(N3CCC4(CCN(C[C@H]5CC[C@H](n6cc(-n7cc(-c8cnn9ccc(N[C@@H]%10CCCC[C@@H]%10O)nc89)nn7)c(C(F)F)n6)CC5)C4)CC3)c21 (stereo partly shown) [Example 154]
< 0.5 nM

Let us now turn to Cn1c(=O)n(C2CCC(=O)NC2=O)c2cccc(N3CCC4(CCN(C[C@H]5CC[C@H](n6cc(-n7cc(-n8ccc9cc(C(N)=O)cnc98)nn7)c(C(F)F)n6)CC5)CC4)CC3)c21 (stereo partly shown) [Example 99]
< 0.5 nM

Let us now turn to Cn1c(=O)n(C2CCC(=O)NC2=O)c2cccc(NC(=O)CN3CCN(C[C@H]4CC[C@H](n5cc(-n6cc(-n7ccc8cc(C(N)=O)cnc87)nn6)c(C(F)F)n5)CC4)CC3)c21 (stereo partly shown) [Example 107]
1 to 5 nM

Let us now turn to Cn1c(=O)n(C2CCC(=O)NC2=O)c2cccc(N3CCC(N4CCN(C[C@H]5CC[C@H](n6cc(-n7cc(-c8cnn9ccc(NCCC(C)(C)O)nc89)nn7)c(C(F)F)n6)CC5)CC4)CC3)c21 (stereo partly shown) [Example 125]
< 0.5 nM

Let us now turn to Cn1c(=O)n(C2CCC(=O)NC2=O)c2cccc(N3CCOC4(CCN(C[C@H]5CC[C@H](n6cc(-n7cc(-c8ccc9cc(C(N)=O)cnn89)nn7)c(C(F)F)n6)CC5)CC4)C3)c21 (stereo partly shown) [Example 88]
< 0.5 nM

Let us now turn to NC(=O)c1cnn2c(-c3cn(-c4cn([C@H]5CC[C@H](CN6CCN(c7ccc8c(c7)C(=O)N(C7CCC(=O)NC7=O)C8=O)CC6)CC5)nc4C(F)F)nn3)ccc2c1 (stereo partly shown) [Example 70]
1 to 5 nM

Let us now turn to Cn1c(=O)n(C2CCC(=O)NC2=O)c2cccc(NCC3CC4(CCN(C[C@H]5CC[C@H](n6cc(-n7cc(-c8cnn9ccc(N%10CCOCC%10)nc89)nn7)c(C(F)F)n6)CC5)CC4)C3)c21 (stereo partly shown) [Example 9]
< 0.5 nM

Let us now turn to Cn1c(=O)n(C2CCC(=O)NC2=O)c2cccc(N3CCC4(CCN(C[C@H]5CC[C@H](n6cc(-n7cc(-c8cnn9ccc(N%10CCC(O)CC%10)nc89)nn7)c(C(F)F)n6)CC5)C4)CC3)c21 (stereo partly shown) [Example 139]
< 0.5 nM

The origin of these recorded values is patent EP4759807A1.
